# Test system: HCT-116 colon
# test-name: NCI tumour cell line growth inhibition, 48 h; in the data active = GI50 below about 0.43 µM; inactive = the rest
Parameter call: string, one of active, inactive

Hi, do you know how `COc1cc2ncnc(-n3ncc4cc(NC(=O)Nc5ccc(Cl)c(Cl)c5)ccc43)c2cc1OC` came out in this test?
inactive

Hi, do you know how CCC(C)Oc1nc2c(c(=O)n(C)c(=O)n2C)n1C (centres undefined) came out in this test?
inactive

Hi, do you know how `C=C1C(=O)O[C@H]2[C@H]1CC/C(COC(=O)NCc1ccc(OC)cc1)=C\CC[C@@]1(C)O[C@@H]21` came out in this test?
inactive

Hi, do you know how COC(=O)c1cc2c(cc1Cl)SC1=NN(C)S(=O)N1S2(=O)=O (centres undefined) came out in this test?
inactive

More entries:
Hi, do you know how `COc1ccc(Nc2nc3ccccc3c3occc23)cc1` came out in this test?
inactive

Hi, do you know how NCCCCC1NC(=O)C(CC(=O)O)NC(=O)CNC(=O)C(CCCN=C(N)N)NC(=O)C(N)CSSCC(C(=O)O)NC(=O)C(CC(=O)O)NC(=O)C2CCCN2C(=O)CNC1=O (centres undefined) came out in this test?
inactive

Hi, do you know how `CSc1ncc(Br)c(Sc2nc(N)nc3nc[nH]c23)n1` came out in this test?
inactive

Hi, do you know how `Cc1cc(Nc2nc(C(=O)Nc3ccccc3)nc3ccccc23)n[nH]1` came out in this test?
inactive

Hi, do you know how `CC[C@@]1(OC(=O)CN)C(=O)OCc2c1cc1n(c2=O)Cc2c-1nc1cc3c(cc1c2CCl)OCO3` came out in this test?
active

###

# Test system: SF-539 CNS
# test-name: NCI tumour cell line growth inhibition, 48 h; in the data active = GI50 below about 0.43 µM; inactive = the rest
Parameter call: string, one of yes = active, no = inactive

Answered cases to consult:
Hi, do you know how NS(=O)(=O)c1ccc(N2N=C3c4ccccc4CC3C2c2cccs2)cc1 (stereo unspecified) came out in this test?
no

Hi, do you know how `C#CCNC(=S)N/N=C(\C)c1ccccn1` came out in this test?
yes

Hi, do you know how `COc1cccc(CN(C)c2ccc(CO)c(Cl)c2)c1` came out in this test?
no

Hi, do you know how `CCn1c(-c2cc3c([nH]c4ccccc43)c(-c3cccc(O)c3)n2)n[nH]c1=S` came out in this test?
no

More entries:
Hi, do you know how `O=S1(=O)N(Cc2ccccc2)[C@@H](Cc2ccccc2)[C@H](O)[C@H](O)[C@H](Cc2ccccc2)N1Cc1ccccc1` came out in this test?
no

Hi, do you know how `COc1ccc(NC(=O)/C=C(C)/C=C/C=C(C)/C=C/C2=C(C)CCCC2(C)C)cc1` came out in this test?
no

Hi, do you know how CCCCCCCC(=O)OCCCC1[C@]2(C)CC[C@@]3(C)C([C@H](C)CCC=C(C)C)CC[C@]3(C)C2CC[C@]12OC2(C)C (stereo partly specified) came out in this test?
no

Hi, do you know how CN(C)CCNC(=O)c1ccc(-c2nc3ccc4[nH]ncc4c3c3c2C2CCC3C2)cc1 (stereo unspecified) came out in this test?
no

Hi, do you know how `c1cc(-c2nnc(SSc3ncnc4nc[nH]c34)o2)ccn1` came out in this test?
no

Hi, do you know how `COc1ccc(/C=C/C(=O)c2ccc(-n3cc(CN4CCN(c5cc6c(cc5F)c(=O)c(C(=O)O)cn6C5CC5)CC4)nn3)cc2)cc1OC` came out in this test?
no
